Target: G-protein coupled receptor 151 (Homo sapiens)
Assay: activators of human GPR151, primary screen, cell-based, PathHunter beta-arrestin, luminescence (AID 1508602)
Conditions: PathHunter beta-arrestin GPR151 cells, at 11.2 µM
The whole screen tested about 650,000 compounds, of which about 6,800 (1%) were called active. No stated cut-off is given here; in the data, active means activation above about 4.9%; inactive means the rest. This is one part of a sample in which actives are shown more often than they occur.
Would you mind answering with one of these outcomes? True for active, False for inactive

Asked: Please let me know the test result on file for "Cc1cc(N2CCOCC2)ccc1/C=C1\C(=O)NC(=S)N(c2ccccc2)C1=O" .
Given back: False

Asked: Please let me know the test result on file for CN(C)CCNC(=O)C(=O)NCC1OCCCN1S(=O)(=O)c1ccc(F)cc1 (stereo not given) .
Given back: False

Asked: Please let me know the test result on file for "Cc1c(NC(=O)c2nn3c(C(F)(F)F)cc(-c4ccc(Cl)cc4)nc3c2Cl)c(=O)n(-c2ccccc2)n1C" .
Given back: False

Asked: Please let me know the test result on file for "O=C(Nc1ccc(Cl)cc1F)c1ccc(SCC(=O)N2CCCCC2)c([N+](=O)[O-])c1" .
Given back: False

Asked: Please let me know the test result on file for "Cc1cn2c3c(=O)n(Cc4ccccc4)c(=O)n(C)c3nc2n1C" .
Given back: False

Asked: Please let me know the test result on file for Cc1ccccc1CC1(CO)CCCN(Cc2ccncc2)C1 (stereo not given) .
Given back: True

Asked: Please let me know the test result on file for "CCOc1ccc(C(=O)Nc2nnc(CC)s2)cc1[N+](=O)[O-]" .
Given back: True

Asked: Please let me know the test result on file for "OCC1(Cc2ccccc2C(F)(F)F)CCN(Cc2ccncc2)CC1" .
Given back: False

Asked: Please let me know the test result on file for CC(C(=O)O)c1ccc(NC(=O)OC(C)(C)C)cc1 (stereo not given) .
Given back: False

Asked: Please let me know the test result on file for "CCN1C(=O)C(=Cc2ccc(N3CCCC3)cc2C)C(=O)N(CC)C1=S" .
Given back: False

Source of measurements: PubChem BioAssay AID1508602
